biological target: Adenosine receptor A3 (Homo sapiens); test: Displacement of [3H]NECA from adenosine A3 receptor expressed in human HeLa cell membranes at 1 uM incubated for 180 mins by scintillation counting method; conditions: Cell membrane
Measurement Kind: inhibition (%)
Field format: number, assumed %, no unit text.

Consider the following illustrative entries.
- Molecule: "CCNC(=O)C1=C(C)NC(=O)NC1c1ccco1 (racemic)"
  Measurement Kind: "inhibition"
  Recorded Result: 3
- Molecule: "CC1=C(C(=O)OC(C)(C)C)C(c2ccsc2)NC(=S)N1 (racemic)"
  Measurement Kind: "inhibition"
  Recorded Result: 16
- Molecule: "CC1=C(C(=O)OCC(C)C)C(c2ccco2)NC(=O)N1 (racemic)"
  Measurement Kind: "inhibition"
  Recorded Result: 13
- Molecule: "CC1=C(C(=O)C2CC2)C(c2cccs2)NC(=O)N1 (racemic)"
  Measurement Kind: "inhibition"
  Recorded Result: 15
- Molecule: "CC1=C(C(=O)OCC(C)C)C(c2ccsc2)NC(=O)N1 (racemic)"
  Measurement Kind: "inhibition"
  Recorded Result: 21

Continue with the next molecule.
Dear colleague, I am looking for the recorded inhibition of the following molecule: CC1=C(C(=O)NC(C)C)C(c2ccco2)NC(=O)N1 (racemic)
4

====

target: Adenosine receptor A1 (Homo sapiens) (UniProt P30542); assay: Displacement of [3H]DPCPX from human adenosine A1 receptor expressed in CHO cell membranes at 1 uM incubated for 60 mins by scintillation counting method; details: Cell membrane
Each entry gets FALSE if its inhibition stays under 5%, and TRUE if its inhibition is 5% or above.

- Compound: "CC1=C(C(=O)OC(C)(C)C)C(c2ccsc2)NC(=O)N1C (racemic)"
  Assigned Label: "TRUE"
- Compound: "CC1=C(C(=O)OCC2CCC2)C(c2ccco2)NC(=O)N1 (racemic)"
  Assigned Label: "TRUE"
- Compound: "COC(=O)C1=C(C)N(C)C(=O)NC1c1cccs1 (racemic)"
  Assigned Label: "TRUE"
- Compound: "CC1=C(c2ncc(C)o2)C(c2ccoc2)NC(=O)N1 (racemic)"
  Assigned Label: "TRUE"
- Compound: "CC1=C(C(=O)OC2CCCC2)C(c2ccco2)NC(=O)N1 (racemic)"
  Assigned Label: "FALSE"

# input for lookup
hey, is inhibition for this one >= 5%? CCC(CC)OC(=O)C1=C(C)NC(=O)NC1c1ccoc1 (racemic)
TRUE

====

assay: Stability in human liver microsomes in NADP incubated up to 60 mins by UPLC-MS/MS analysis; type: ADME, Microsome; conditions: read-out: Stabilty
Measurement Kind: remaining at 1 h (%)
Just the number in %, nothing appended.

- Compound: "CC1=C(C(=O)OC(C)C)C(c2ccco2)NC(=S)N1 (racemic)"
  Recorded Result: 77

Now examine the next entry.
GET /values?readout=remaining at 1 h&item= CCOC(=O)C1=C(C)NC(=O)NC1c1ccsc1 (racemic)
65

====

target: Adenosine receptor A2b (Homo sapiens) (UniProt P29275); experiment: Displacement of [3H]DPCPX from human adenosine A2B receptor expressed in HEK293 cell membranes at 1 uM incubated for 30 mins by scintillation counting method; settings: Cell membrane
Sequence (P29275 whole entry): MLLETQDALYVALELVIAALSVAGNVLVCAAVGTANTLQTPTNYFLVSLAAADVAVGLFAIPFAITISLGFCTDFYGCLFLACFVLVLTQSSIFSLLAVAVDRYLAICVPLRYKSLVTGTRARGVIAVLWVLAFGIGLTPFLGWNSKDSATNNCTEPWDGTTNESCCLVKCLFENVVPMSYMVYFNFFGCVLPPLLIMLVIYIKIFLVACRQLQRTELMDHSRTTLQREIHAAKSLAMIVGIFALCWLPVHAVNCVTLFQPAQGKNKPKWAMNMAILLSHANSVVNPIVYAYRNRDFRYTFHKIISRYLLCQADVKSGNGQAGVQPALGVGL
inhibition vs 10%: at or above is t, below is f.

Examples with answers:
- Compound: "COC(=O)C1=C(C)NC(=O)NC1c1cccs1 (racemic)"
  Assigned Label: "t"
- Compound: "CC1=C(C(=O)OC(C)(C)C)C(c2ccco2)NC(=O)N1C (racemic)"
  Assigned Label: "t"
- Compound: "CC1=C(C(=O)OC(C)C)[C@H](c2ccco2)NC(=S)N1"
  Assigned Label: "t"

Check if inhibition >= 10% (inclusive). Item: CCC(CC)OC(=O)C1=C(C)NC(=O)NC1c1ccsc1 (racemic)
t

Quick check, inhibition >= 10%? CC1=C(C(N)=O)C(c2ccsc2)NC(=O)N1 (racemic)
f

Is the recorded value of inhibition equal to or greater than 10% for this compound? CCC(CC)OC(=O)C1=C(C)NC(=O)NC1c1cccs1 (racemic)
f

State whether the measured inhibition reaches 10%, counting equality as reaching it, for CC1=C(C(N)=O)C(c2cccs2)NC(=O)N1 (racemic)
f

Evaluate CC1=C(C(=O)SC(C)C)C(c2ccco2)NC(=O)N1 (racemic) : inhibition at minimum 10%?
t

Given the entry CC1=C(C(=O)OC2CCCCC2)C(c2ccoc2)NC(=O)N1 (racemic) , answer whether its inhibition meets or surpasses 10%.
f

Reported inhibition reaches at least 10% for CCN(CC)C(=O)C1=C(C)NC(=O)NC1c1ccoc1 (racemic) ?
t

Can CCCC(=O)C1=C(C)NC(=O)NC1c1cccs1 (racemic) be said to have inhibition at or above 10%?
f

hey, is inhibition for this one >= 10%? CC1=C(C(=O)OCC(C)C)C(c2ccco2)NC(=O)N1C (racemic)
f

Identify whether the reported inhibition of the following compound is 10% or greater: CCOP(=O)(OCC)C1=C(C)NC(=O)NC1c1cccs1 (racemic)
f

Form field: inhibition at least 10%? Entry: CCN(CC)C(=O)C1=C(C)NC(=O)NC1c1ccco1 (racemic)
t

Quick check: does CC1=C(C(=O)OC(C)(C)C)C(c2cccs2)NC(=S)N1 (racemic) have inhibition greater than or equal to 10%?
t

====

biological target: UniProtKB P29275; experiment: Displacement of [3H]DPCPX from human adenosine A2B receptor expressed in HEK293 cell membranes at 1 uM incubated for 30 mins by scintillation counting method; settings: Cell membrane
Recorded inhibition by entry
Supply the numeric figure in %, leaving out any unit text.

Some compounds with known inhibition results, for comparison:
- Compound: "CC1=C(C(=O)OCc2ccccc2)C(c2ccsc2)NC(=S)N1 (racemic)"
  Measurement Kind: "inhibition"
  Recorded Result: 10
- Compound: "CCSC(=O)C1=C(C)NC(=O)NC1c1ccsc1 (racemic)"
  Measurement Kind: "inhibition"
  Recorded Result: 17
- Compound: "CCCOC(=O)C1=C(C)N(C)C(=O)NC1c1ccco1 (racemic)"
  Measurement Kind: "inhibition"
  Recorded Result: 23
- Compound: "CC1=C(C(=O)OCc2ccccc2)C(c2ccoc2)NC(=S)N1 (racemic)"
  Measurement Kind: "inhibition"
  Recorded Result: 36

# value lookup — system UniProtKB P29275, readout inhibition, item CC1=C(C(=O)OC2CCCCC2)C(c2ccsc2)NC(=O)N1 (racemic)
4

Enter reported inhibition observed with UniProtKB P29275 for CC1=C(C(=O)C2CC2)C(c2cccs2)NC(=O)N1 (racemic)
1

State its inhibition on UniProtKB P29275: CCOC(=O)C1=C(C)NC(=O)N[C@H]1c1ccsc1
19

Request body: readout inhibition, system UniProtKB P29275, query COC(=O)C1=C(C)N(C)C(=O)NC1c1ccoc1 (racemic) . Return the value.
7

So what inhibition did CCSC(=O)C1=C(C)NC(=O)NC1c1ccco1 (racemic) get with UniProtKB P29275?
29

====

Target: Adenosine receptor A1 (Homo sapiens)
Sequence (whole entry): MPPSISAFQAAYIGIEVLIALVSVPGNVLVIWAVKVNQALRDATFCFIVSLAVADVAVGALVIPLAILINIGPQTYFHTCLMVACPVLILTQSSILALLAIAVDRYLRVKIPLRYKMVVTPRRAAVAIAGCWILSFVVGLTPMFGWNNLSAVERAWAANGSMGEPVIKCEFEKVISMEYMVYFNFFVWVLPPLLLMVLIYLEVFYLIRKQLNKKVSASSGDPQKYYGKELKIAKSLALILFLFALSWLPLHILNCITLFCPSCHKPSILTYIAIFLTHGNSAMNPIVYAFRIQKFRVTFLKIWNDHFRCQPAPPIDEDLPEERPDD
Test: Displacement of [3H]DPCPX from human adenosine A1 receptor expressed in CHO cell membranes at 1 uM incubated for 60 mins by scintillation counting method
Settings: Cell membrane
# maps each entry to its inhibition
Write down the numeric answer in % and omit the unit.

- Molecule: "CC1=C(C(=O)OCC(C)C)C(c2cccs2)NC(=O)N1 (racemic)"
  Target Or System: "Adenosine receptor A1 (Homo sapiens)"
  U: "%"
  Recorded Result: 25

Which value of inhibition has been reported for CC1=C(C(=O)OC(C)(C)C)C(c2ccoc2)NC(=O)N1C (racemic) in the records?
21

For CC1=C(C(=O)OCC(C)C)C(c2ccsc2)NC(=S)N1 (racemic) , what is its reported inhibition?
8

Fill blank: measured inhibition of the molecule CC1=C(C(=O)CC(C)C)C(c2ccoc2)NC(=O)N1 (racemic) is ____.
23

====

Molecular target: Adenosine receptor A3 (Homo sapiens)
Sequence (whole entry): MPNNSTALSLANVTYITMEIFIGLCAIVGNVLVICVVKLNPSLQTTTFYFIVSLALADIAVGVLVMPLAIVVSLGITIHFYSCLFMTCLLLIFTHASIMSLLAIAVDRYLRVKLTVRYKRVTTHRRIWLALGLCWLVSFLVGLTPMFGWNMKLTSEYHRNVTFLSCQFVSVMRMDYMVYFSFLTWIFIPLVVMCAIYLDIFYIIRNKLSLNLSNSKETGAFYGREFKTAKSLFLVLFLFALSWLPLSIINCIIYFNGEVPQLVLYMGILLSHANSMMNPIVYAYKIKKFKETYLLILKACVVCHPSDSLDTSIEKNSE
Experiment: Displacement of [3H]NECA from adenosine A3 receptor expressed in human HeLa cell membranes at 1 uM incubated for 180 mins by scintillation counting method
Details: Cell membrane
# inhibition >= 3% gives condition met, anything below gives condition not met

Entry CCCOC(=O)C1=C(C)NC(=S)NC1c1ccco1 (racemic) : is its inhibition no less than 3%?
condition not met

Could you verify whether the entry CC1=C(C(=O)OC2CCCC2)C(c2ccoc2)NC(=O)N1 (racemic) shows inhibition of no less than 3%?
condition not met

Value source: ChEMBL document CHEMBL4765483
